Target: human p38 kinase alpha (Homo sapiens)
Construct: GST (N, cleaved yes); made in house; host or cells: E. coli DH10B
Assay: p38 kinase in vitro assay, phosphorylation of biotinylated PHAS-I with 32P-ATP
Assay type: biochemical
Conditions: in vitro P38-alpha kinase inhibition; read-out: P38 alpha kinase IC50
MEASURED_PARAMETER: IC50 (µM)
Just the number in µM, nothing appended.

Example entries and their recorded answers appear below.
Could you please provide reported IC50 for CC(NS(=O)(=O)c1ccc(Cl)c(Cl)c1)c1[nH]nc(-c2ccc(F)cc2)c1-c1ccncc1 (stereo not drawn) [Example B-0642] ? Thanks!
0.49

Could you please provide reported IC50 for CC(NC(=O)N(C)C)c1[nH]nc(-c2ccc(F)cc2)c1-c1ccncc1 (stereo not drawn) [Example B-0584] ? Thanks!
0.66

Could you please provide reported IC50 for CC(NC(=O)c1ccccc1C(F)(F)F)c1[nH]nc(-c2ccc(F)cc2)c1-c1ccncc1 (stereo not drawn) [Example B-0545] ? Thanks!
1.06

Could you please provide reported IC50 for Cc1cccc(C)c1NC(=O)NC(Cc1ccccc1)c1[nH]nc(-c2ccc(F)cc2)c1-c1ccncc1 (stereo not drawn) [Example B-0778] ? Thanks!
51

Could you please provide reported IC50 for Cc1ccc(C(=O)NC(Cc2ccccc2)c2[nH]nc(-c3ccc(F)cc3)c2-c2ccncc2)cc1 (stereo not drawn) [Example B-0850] ? Thanks!
1.81

Now for the compound whose IC50 we want.
Could you please provide reported IC50 for CC(NS(=O)(=O)c1cccc2nonc12)c1[nH]nc(-c2ccc(F)cc2)c1-c1ccncc1 (stereo not drawn) [Example B-0654] ? Thanks!
5.97

###

Target: human p38 kinase alpha (Homo sapiens, UniProt Q16539)
Construct: GST (N, cleaved yes); made in house; host or cells: E. coli DH10B
Sequence (Q16539 whole entry): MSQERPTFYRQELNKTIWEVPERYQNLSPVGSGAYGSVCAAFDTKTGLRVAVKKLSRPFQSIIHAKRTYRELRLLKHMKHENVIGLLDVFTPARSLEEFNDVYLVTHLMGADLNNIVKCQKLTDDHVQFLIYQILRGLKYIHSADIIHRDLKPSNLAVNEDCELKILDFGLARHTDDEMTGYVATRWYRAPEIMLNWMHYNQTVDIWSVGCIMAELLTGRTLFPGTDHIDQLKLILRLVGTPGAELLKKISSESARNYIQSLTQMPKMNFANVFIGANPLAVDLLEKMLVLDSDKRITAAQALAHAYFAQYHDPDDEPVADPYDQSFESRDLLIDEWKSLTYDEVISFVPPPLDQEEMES
Assay: p38 kinase in vitro assay, phosphorylation of biotinylated PHAS-I with 32P-ATP
Assay type: biochemical
Details: in vitro P38-alpha kinase inhibition; read-out: P38 alpha kinase IC50
Description: The coding region of the human p38a cDNA was obtained by PCR-amplification from RNA isolated from the human monocyte cell line THP.1. […] Random primer, dNTP's and Superscript™ reagents were all purchased from Life-Technologies, Gaithersburg, Mass. The reaction was incubated at 42° C. for 1 hour. […]
MEASURED_PARAMETER: IC50 (nM)
Just the number in nM, nothing appended.

Could you please provide reported IC50 for COc1ccc(C)cc1S(=O)(=O)NC(C)c1[nH]nc(-c2ccc(F)cc2)c1-c1ccncc1 (stereo not shown) ? Thanks!
1610

Now for the compound whose IC50 we want.
Could you please provide reported IC50 for COc1ccc(CC(=O)NC(Cc2ccccc2)c2[nH]nc(-c3ccc(F)cc3)c2-c2ccncc2)cc1 (stereo not shown) [Example B-0848] ? Thanks!
1560

###

Target: human p38 kinase alpha (Homo sapiens)
Construct: GST (N, cleaved yes); made in house; host or cells: E. coli DH10B
Assay: p38 kinase in vitro assay, phosphorylation of biotinylated PHAS-I with 32P-ATP
Format: biochemical
Conditions: @ 1.0 uM
MEASURED_PARAMETER: P38 alpha kinase % inhib @ conc. (uM)
Write the numeric value and append its unit.

Could you please provide reported P38 alpha kinase % inhib @ conc. (uM) for CCCCOc1ccc(NC(=O)NCCc2[nH]nc(-c3ccc(F)cc3)c2-c2ccncc2)cc1 ? Thanks!
45.0% @

Could you please provide reported P38 alpha kinase % inhib @ conc. (uM) for NC(=O)NCCc1[nH]nc(-c2ccc(F)cc2)c1-c1ccncc1 ? Thanks!
76.0% @

***
Could you please provide reported P38 alpha kinase % inhib @ conc. (uM) for O=C(NCCc1[nH]nc(-c2ccc(F)cc2)c1-c1ccncc1)N1CCCC1 ? Thanks!
76.0% @

###

Target: human p38 kinase alpha (Homo sapiens, UniProt Q16539)
Construct: GST (N, cleaved yes); made in house; host or cells: E. coli DH10B
Test: p38 kinase in vitro assay, phosphorylation of biotinylated PHAS-I with 32P-ATP
Type: biochemical
Conditions: @ 1.0 uM
Threshold rule: P38 alpha kinase % inhib @ conc. (uM) greater than or equal to 70 % @ is 1.0; below that, 0.0.

P38 alpha kinase % inhib @ conc. (uM) >= 70 % @ for O=C(NCCc1[nH]nc(-c2ccc(F)cc2)c1-c1ccncc1)Nc1ccccc1 [Example B-1043] ?
0.0

***
P38 alpha kinase % inhib @ conc. (uM) >= 70 % @ for CC(Oc1ccccc1)C(=O)NCCCc1[nH]nc(-c2ccc(F)cc2)c1-c1ccncc1 (stereo not shown) [Example B-1186] ?
1.0

P38 alpha kinase % inhib @ conc. (uM) >= 70 % @ for COCC(=O)NCCc1[nH]nc(-c2ccc(F)cc2)c1-c1ccncc1 [Example B-0994] ?
0.0

P38 alpha kinase % inhib @ conc. (uM) >= 70 % @ for O=C(NCCc1[nH]nc(-c2ccc(F)cc2)c1-c1ccncc1)c1ccccc1C(F)(F)F [Example B-0996] ?
0.0

P38 alpha kinase % inhib @ conc. (uM) >= 70 % @ for O=S(=O)(NCCCc1[nH]nc(-c2ccc(F)cc2)c1-c1ccncc1)c1ccc(F)cc1F [Example B-1195] ?
0.0

###

Biological target: human p38 kinase alpha (Homo sapiens, UniProt Q16539)
Construct: GST (N, cleaved yes); made in house; host or cells: E. coli DH10B
Assay: p38 kinase in vitro assay, phosphorylation of biotinylated PHAS-I with 32P-ATP
Format: biochemical
Conditions: @ 1.0 uM
MEASURED_PARAMETER: P38 alpha kinase % inhib @ conc. (uM) (% @)
Just the number in % @, nothing appended.

Example entries and their recorded answers appear below.
Could you please provide reported P38 alpha kinase % inhib @ conc. (uM) for O=C(NCCc1[nH]nc(-c2ccc(F)cc2)c1-c1ccncc1)NCc1ccccc1 [Example B-1031] ? Thanks!
69.0

Could you please provide reported P38 alpha kinase % inhib @ conc. (uM) for O=C(NCCc1[nH]nc(-c2ccc(F)cc2)c1-c1ccncc1)N1CCOCC1 [Example B-1033] ? Thanks!
86.0

Could you please provide reported P38 alpha kinase % inhib @ conc. (uM) for COc1ccc(CC(=O)NCCc2[nH]nc(-c3ccc(F)cc3)c2-c2ccncc2)cc1 [Example B-1000] ? Thanks!
55.0

***
Could you please provide reported P38 alpha kinase % inhib @ conc. (uM) for C=CCOC(=O)NCCc1[nH]nc(-c2ccc(F)cc2)c1-c1ccncc1 [Example B-0985] ? Thanks!
86.0

Could you please provide reported P38 alpha kinase % inhib @ conc. (uM) for CC(C)S(=O)(=O)NCCc1[nH]nc(-c2ccc(F)cc2)c1-c1ccncc1 [Example B-1015] ? Thanks!
77.0

Could you please provide reported P38 alpha kinase % inhib @ conc. (uM) for CS(=O)(=O)NCCc1[nH]nc(-c2ccc(F)cc2)c1-c1ccncc1 [Example B-1024] ? Thanks!
89.0

Could you please provide reported P38 alpha kinase % inhib @ conc. (uM) for O=C(NCCCc1[nH]nc(-c2ccc(F)cc2)c1-c1ccncc1)c1ccncc1 [Example B-1183] ? Thanks!
77.0

Could you please provide reported P38 alpha kinase % inhib @ conc. (uM) for CCOC(=O)c1cccc(NC(=O)NCCc2[nH]nc(-c3ccc(F)cc3)c2-c2ccncc2)c1 [Example B-0942] ? Thanks!
82.0

###

Each entry below carries its reported P38 alpha kinase IC50, uM or % inhib @ conc. (uM): % inhib.
Target: human p38 kinase alpha (Homo sapiens)
Construct: GST (N, cleaved yes); made in house; host or cells: E. coli DH10B
Assay: p38 kinase in vitro assay, phosphorylation of biotinylated PHAS-I with 32P-ATP
Format: biochemical
Conditions: @ 10.0 uM
Just the number in % @, nothing appended.

Could you please provide reported P38 alpha kinase IC50, uM or % inhib @ conc. (uM): % inhib for Cc1c(-c2ccncc2)c(-c2ccc(F)cc2)nn1CC(=O)Nc1cccc(SC(F)(F)F)c1 [Example B-2459] ? Thanks!
82.0

Could you please provide reported P38 alpha kinase IC50, uM or % inhib @ conc. (uM): % inhib for CCOC(=O)CN(Cc1ccccn1)C(=O)Cn1nc(-c2ccc(F)cc2)c(-c2ccncc2)c1C [Example B-2390] ? Thanks!
34.0

Could you please provide reported P38 alpha kinase IC50, uM or % inhib @ conc. (uM): % inhib for Cc1c(-c2ccncc2)c(-c2ccc(F)cc2)nn1CC(=O)Nc1ccc(OCc2ccccc2)cc1 [Example B-2437] ? Thanks!
82.0

Could you please provide reported P38 alpha kinase IC50, uM or % inhib @ conc. (uM): % inhib for CCN(CC)C1CCN(C(=O)Cn2nc(-c3ccc(F)cc3)c(-c3ccncc3)c2C)C1 (centres unmarked) [Example B-2391] ? Thanks!
40.0

Could you please provide reported P38 alpha kinase IC50, uM or % inhib @ conc. (uM): % inhib for Cc1c(-c2ccncc2)c(-c2ccc(F)cc2)nn1CC(=O)Nc1ccccc1Cl [Example B-2422] ? Thanks!
90.0

***
Could you please provide reported P38 alpha kinase IC50, uM or % inhib @ conc. (uM): % inhib for Cc1c(-c2ccncc2)c(-c2ccc(F)cc2)nn1CC(=O)NCC(=O)Nc1ccccc1 [Example B-2441] ? Thanks!
86.0

Could you please provide reported P38 alpha kinase IC50, uM or % inhib @ conc. (uM): % inhib for CCOC(=O)COc1cccc(NC(=O)Cn2nc(-c3ccc(F)cc3)c(-c3ccncc3)c2C)c1 [Example B-2458] ? Thanks!
83.0

Could you please provide reported P38 alpha kinase IC50, uM or % inhib @ conc. (uM): % inhib for Cc1c(-c2ccncc2)c(-c2ccc(F)cc2)nn1CC(=O)Nc1cc(C(F)(F)F)cc(C(F)(F)F)c1 [Example B-2425] ? Thanks!
79.0

Could you please provide reported P38 alpha kinase IC50, uM or % inhib @ conc. (uM): % inhib for Cc1c(-c2ccncc2)c(-c2ccc(F)cc2)nn1CC(=O)Nc1ccc(OCCOc2ccccc2)cc1 [Example B-2448] ? Thanks!
75.0

Could you please provide reported P38 alpha kinase IC50, uM or % inhib @ conc. (uM): % inhib for CCCCCCOc1ccc(NC(=O)Cn2nc(-c3ccc(F)cc3)c(-c3ccncc3)c2C)cc1 [Example B-2436] ? Thanks!
80.0

Could you please provide reported P38 alpha kinase IC50, uM or % inhib @ conc. (uM): % inhib for CCCCNS(=O)(=O)c1cccc(NC(=O)Cn2nc(-c3ccc(F)cc3)c(-c3ccncc3)c2C)c1 [Example B-2440] ? Thanks!
77.0

Could you please provide reported P38 alpha kinase IC50, uM or % inhib @ conc. (uM): % inhib for Cc1c(-c2ccncc2)c(-c2ccc(F)cc2)nn1CC(=O)N(CCc1ccccc1)CCc1ccccn1 [Example B-2402] ? Thanks!
43.0

Could you please provide reported P38 alpha kinase IC50, uM or % inhib @ conc. (uM): % inhib for Cc1c(-c2ccncc2)c(-c2ccc(F)cc2)nn1CC(=O)Nc1ccc(Cl)cc1 [Example B-2418] ? Thanks!
88.0

Could you please provide reported P38 alpha kinase IC50, uM or % inhib @ conc. (uM): % inhib for Cc1c(-c2ccncc2)c(-c2ccc(F)cc2)nn1CC(=O)Nc1ccc(-n2ccc(C(F)(F)F)n2)cc1 [Example B-2455] ? Thanks!
87.0

Could you please provide reported P38 alpha kinase IC50, uM or % inhib @ conc. (uM): % inhib for Cc1c(-c2ccncc2)c(-c2ccc(F)cc2)nn1CC(=O)Nc1cc(F)cc(F)c1 [Example B-2438] ? Thanks!
75.0

Could you please provide reported P38 alpha kinase IC50, uM or % inhib @ conc. (uM): % inhib for Cc1c(-c2ccncc2)c(-c2ccc(F)cc2)nn1CC(=O)Nc1ccccc1 [Example B-2416] ? Thanks!
85.0

Could you please provide reported P38 alpha kinase IC50, uM or % inhib @ conc. (uM): % inhib for Cc1c(-c2ccncc2)c(-c2ccc(F)cc2)nn1CC(=O)Nc1cc([N+](=O)[O-])cc([N+](=O)[O-])c1 [Example B-2430] ? Thanks!
90.0
